Measured attribute: melting point

> print(dat)
                                   compound  measured.value
1  CNS(=O)(=O)c1sc(N(C)C(=O)Cc2ccc(-c3cccc(F)c3)cc2)nc1C          190 °C
2  CCOCCNS(=O)(=O)c1sc(N(C)C(=O)Cc2ccc(-c3ccccc3)cc2)nc1C   105 to 106 °C
3  CNS(=O)(=O)c1sc(N(C)C(=O)Cc2ccc(-c3ccccc3Cl)cc2)nc1C          128 °C
4  CNS(=O)(=O)c1sc(N(C(=O)Cc2ccc(-c3ccccc3)cc2)C2CC2)nc1C          202 °C

We now examine a further compound.
Query: melting point; subject: CNS(=O)(=O)c1sc(N(C)C(=O)C(C)c2ccc(-c3ccccc3)cc2)nc1C (centres unmarked) 170 to 172 °C

* * *

# Tested on: HSV-2 G
# Experimental details: anti-HSV screening test (cytopathogenic effect, fluorescein diacetate read-out), HSV-2 G on Vero cells
# Assay type: cell-based
# Condition context: Human alphaherpesvirus 2, Vero, read-out: IC50 HSV-2 G/Vero
Measured attribute: IC50

// lookup IC50 | system=HSV-2 G | key= Cc1nc(N(C)C(=O)Cc2ccc(-c3ccccc3F)cc2)sc1S(N)(=O)=O < 10 nM

* * *

Measured attribute: melting point

Use the examples below as a reference point.
> print(dat)
                                   molecule  measured.attribute  measured.value
1  CNS(=O)(=O)c1sc(N(C)C(=O)Cc2ccc(-c3cccnc3)cc2)nc1C       melting point          200 °C
2  CCOCCOCCOCCN(C(=O)Cc1ccc(-c2ccccc2)cc1)c1nc(C)c(S(N)(=O)=O)s1       melting point           94 °C
3  Cc1nc(N(C)C(=O)Cc2ccc(-c3ccccc3C(F)(F)F)cc2)sc1S(=O)(=O)NCCNC(=O)OC(C)(C)C       melting point          156 °C
4  Cc1nc(N(C(=O)Cc2ccc(-c3ccccc3)cc2)C2CC2)sc1S(N)(=O)=O       melting point          179 °C
5  CNS(=O)(=O)c1sc(N(C)C(=O)Cc2ccc(-c3cc(C)cc(C)c3)cc2)nc1C       melting point          170 °C

Quick one: give me melting point for each item below, same order please.
1. CNS(=O)(=O)c1sc(N(C)C(=O)Cc2ccc(-c3ncccc3O)cc2)nc1C
2. CCOc1ccc(CC(=O)N(C)c2nc(C)c(S(N)(=O)=O)s2)cc1
3. Cc1nc(N(C)C(=O)Cc2ccc(-c3ncccc3C(F)(F)F)cc2)sc1S(N)(=O)=O.Cl
4. CNS(=O)(=O)c1sc(N(CCN2CCCC2=O)C(=O)Cc2ccc(-c3ccccc3)cc2)nc1C
5. CNS(=O)(=O)c1sc(N(C)C(=O)Cc2ccc(-c3cnccn3)cc2)nc1C
6. CNS(=O)(=O)c1sc(N(CCNC(=O)OC(C)(C)C)C(=O)Cc2ccc(-c3ccccc3)cc2)nc1C
7. CCOc1ccc(CC(=O)N(C)c2nc(C)c(S(=O)(=O)N(C)C)s2)cc1

1: 225 °C; 2: 168 °C; 3: 225 °C; 4: 156 °C; 5: 187 °C; 6: 188 °C; 7: 154 °C

Hi, could you look up melting point for each item in my list?
1. Cc1nc(N(C)C(=O)Cc2ccc(-c3ccccc3)cc2)sc1S(=O)(=O)NCCO
2. CNS(=O)(=O)c1sc(NC(=O)Cc2ccc(-c3ccccc3)cc2)nc1C
3. COc1ccc(F)cc1-c1ccc(CC(=O)N(CC2CCCO2)c2nc(C)c(S(N)(=O)=O)s2)cc1 (stereo not shown)
4. CNS(=O)(=O)c1sc(N(C)C(=O)Cc2ccc(-c3ccc(Cl)cc3)cc2)nc1C
5. Cc1nc(N(CC2CC2)C(=O)Cc2ccc(-c3ccccc3)cc2)sc1S(N)(=O)=O
6. CNS(=O)(=O)c1sc(N(C)C(=O)Cc2ccc(-c3cccc(C=O)c3)cc2)nc1C

1. 167 °C
2. 133 °C
3. 79 °C
4. 186 °C
5. 161 °C
6. 192 °C

Entry under review: CONS(=O)(=O)c1sc(N(C)C(=O)Cc2ccc(-c3ccccc3)cc2)nc1C . Reported melting point? 129 °C

* * *

Kindly state melting point for each of the entries shown.

Past entries and their recorded results:
> print(dat)
                                   compound  measured.attribute  measured.value
1  COCCCNS(=O)(=O)c1sc(N(C)C(=O)Cc2ccc(-c3ccccc3)cc2)nc1C       melting point   142 to 143 °C
2  CCOCCCNS(=O)(=O)c1sc(N(CCCOCC)C(=O)Cc2ccc(-c3cccc(OC)c3)cc2)nc1C       melting point     74 to 75 °C
3  Cc1nc(N(CC2CCCO2)C(=O)Cc2ccc(-c3ccccc3)cc2)sc1S(N)(=O)=O (stereo not shown)       melting point          159 °C
4  Cc1nc(N(CCc2ccccn2)C(=O)Cc2ccc(-c3ccccc3)cc2)sc1S(N)(=O)=O       melting point          136 °C
5  CCCN(C(=O)Cc1ccc(-c2ccccc2)cc1)c1nc(C)c(S(=O)(=O)NCC(F)(F)F)s1       melting point          108 °C

Batch of 2 compounds: report melting point for each.
1. COCCCN(C(=O)Cc1ccc(-c2ccccc2)cc1)c1nc(C)c(S(N)(=O)=O)s1
2. Cc1nc(N(C)C(=O)Cc2ccc(-c3ncccc3C(F)(F)F)cc2)sc1S(N)(=O)=O

["148 °C", "221 °C"]

For each of the items listed, what is its melting point?
1. Cc1nc(N(C)C(=O)Cc2ccc(-c3c(F)cccc3F)cc2)sc1S(N)(=O)=O
2. CNS(=O)(=O)c1sc(N(C)C(=O)Cc2ccc(-c3cnccc3C)cc2)nc1C
3. CNS(=O)(=O)c1sc(N(C)C(=O)Cc2ccc(-c3ncccc3N)cc2)nc1C.Cl
4. Cc1nc(N(C)C(=O)Cc2ccc(-c3ccccc3)cc2)sc1S(=O)(=O)NCC(F)(F)F
5. CCOc1ccc(CC(=O)N(C)c2nc(C)c(S(=O)(=O)NC)s2)cc1
6. Cc1nc(N(CCc2ccncc2)C(=O)Cc2ccc(-c3ccccc3)cc2)sc1S(N)(=O)=O
7. Cc1nc(N(C)C(=O)Cc2ccc(-c3ncccc3F)cc2)sc1S(N)(=O)=O

1: 215 °C; 2: 113 °C; 3: 160 °C; 4: 216 °C; 5: 157 °C; 6: 204 °C; 7: 218 °C

For each entry beneath this line, provide reported melting point.
1. Cc1nc(N(C)C(=O)Cc2ccc(-c3ccccc3)cc2F)sc1S(N)(=O)=O
2. Cc1nc(N(C)C(=O)Cc2ccc(-c3ccccc3)cc2)sc1S(=O)(=O)NCCN(C)C(=O)OC(C)(C)C

["130 °C", "175 °C"]

Dear colleague, could you please provide melting point for the compounds listed below?
1. CNS(=O)(=O)c1sc(N(C)C(=O)Cc2ccc(-c3cncnc3)cc2)nc1C
2. Cc1nc(N(C)C(=O)Cc2ccc(-c3ccccn3)cc2)sc1S(=O)(=O)NCCO[Si](C)(C)C(C)(C)C
3. CNS(=O)(=O)c1sc(N(C)C(=O)Cc2ccc(-c3ncccc3C(F)(F)F)cc2)nc1C
4. CNS(=O)(=O)c1sc(N(C)C(=O)Cc2ccc(-c3cccc(OC(F)(F)F)c3)cc2)nc1C
5. CCCCOc1ccc(CC(=O)N(C)c2nc(C)c(S(=O)(=O)NCCOCC)s2)cc1
6. CNS(=O)(=O)c1sc(N(C)C(=O)Cc2ccc(-c3cccc4c3oc3ccccc34)cc2)nc1C

["193 °C", "130 °C", "180 °C", "156 °C", "68 to 70 °C", "109 °C"]

* * *

What melting point was measured for each of the following?
Numbers only, in °C.

Worked cases, answers included:
> print(dat)
                            compound.smiles  measured.attribute  measured.value
1  Cc1nc(N(C)C(=O)Cc2ccc(-c3cccnc3)cc2)sc1S(N)(=O)=O       melting point             208
2  Cc1nc(N(C)C(=O)Cc2ccc(-c3ccccc3)cc2)sc1S(=O)(=O)NCCNC(=O)OC(C)(C)C       melting point             150
3  Cc1nc(N(Cc2ccccc2)C(=O)Cc2ccc(-c3ccccc3)cc2)sc1S(N)(=O)=O       melting point             154
4  Cc1nc(N(C)C(=O)Cc2ccc(-c3ccccc3)cc2)sc1S(=O)(=O)N(C)C       melting point             184

Return reported melting point values for all items listed beneath this line.
1. Cc1nc(N(C)C(=O)Cc2ccc(-c3ccccc3)cc2)sc1S(=O)(=O)NCCN
2. CNS(=O)(=O)c1sc(N(C)C(=O)Cc2ccc(-c3ccccc3C(F)(F)F)cc2)nc1C
3. CNS(=O)(=O)c1sc(N(C)C(=O)Cc2ccc(-c3cc(F)ccc3C)cc2)nc1C
4. CNS(=O)(=O)c1sc(N(C)C(=O)Cc2ccc(-c3ccccc3OC)cc2)nc1C
5. Cc1nc(N(C)C(=O)Cc2ccc(-c3cncc(C#N)c3)cc2)sc1S(N)(=O)=O
6. CCCN(C(=O)Cc1ccc(-c2ccccc2)cc1)c1nc(C)c(S(N)(=O)=O)s1
7. Cc1ccncc1-c1ccc(CC(=O)N(C)c2nc(C)c(S(N)(=O)=O)s2)cc1

1. 138
2. 202
3. 186
4. 192
5. 231
6. 154
7. 204

Provide reported melting point for each item, in the same order as listed.
1. Cc1nc(N(Cc2ccncc2)C(=O)Cc2ccc(-c3ccccc3)cc2)sc1S(N)(=O)=O
2. Cc1nc(N(C)C(=O)Cc2ccc(-c3ccccc3)cc2)sc1S(=O)(=O)NCCO[Si](C)(C)C(C)(C)C
3. CNS(=O)(=O)c1sc(N(C)C(=O)Cc2ccc(-c3cccc([N+](=O)[O-])c3)cc2)nc1C

1. 130
2. 128
3. 201

State the recorded melting point for every item in the following list.
1. Cc1nc(N(C)C(=O)Cc2ccc(-c3cccc([N+](=O)[O-])c3)cc2)sc1S(N)(=O)=O
2. Cc1nc(N(C)C(=O)Cc2ccc(-c3ccccc3)cc2)sc1S(=O)(=O)NCCOC(=O)CNC(=O)OC(C)(C)C
3. CNS(=O)(=O)c1sc(N(C)C(=O)Cc2ccc(-c3ccccc3)cc2)nc1C
4. CNS(=O)(=O)c1sc(N(C)C(=O)Cc2ccc(-c3ccccc3OC(F)(F)F)cc2)nc1C
5. CNS(=O)(=O)c1sc(N(Cc2cccnc2)C(=O)Cc2ccc(-c3ccccc3)cc2)nc1C
6. Cc1nc(N(C)C(=O)Cc2ccc(-c3cccc(F)c3F)cc2)sc1S(N)(=O)=O

1: 202; 2: 159; 3: 180; 4: 190; 5: 161; 6: 202

Find the recorded melting point belonging to Cc1nc(N(C)C(=O)Cc2ccc(-c3ncccc3F)cc2)sc1S(N)(=O)=O.Cl and report it. 206
